B1: POU domain, class 3, transcription factor 4, residues 280 to 335; numbered along this chain, P49335 (parent)
chain: KKRTSIEVSVKGVLETHFLKCPKPAAQEISSLADSLQLEKEVVRVWFCNRRQKEKR

Variants of: B1
assay-notes: abundance fitness (aPCA) (normalised: wild type 0, dead -1); higher = more abundant; growth selection in yeast, the domain comes from the species named
run-parameters: Homo sapiens
Recorded abundance fitness, one value per entry.
Lab note: jot the number down without any unit.

Some solved entries appear below for comparison.
• D34W = -0.801
• L32Q = -0.916

# context switch: different variant, same abundance fitness
Given S35L , state its recorded abundance fitness.
-0.122
